Task for the reader: assign each of the following variants its reported abundance fitness.
B1: Chromodomain-helicase-DNA-binding protein 4, residues 444 to 496; numbered along this chain, Q14839 (parent)
chain: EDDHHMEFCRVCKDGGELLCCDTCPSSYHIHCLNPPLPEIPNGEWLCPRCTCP

Variants of: B1
procedure-text: abundance fitness (aPCA) (normalised: wild type 0, dead -1); higher = more abundant; growth selection in yeast, the domain comes from the species named
experimental-setup: Homo sapiens
Please respond with just the number, no unit label.

Reported abundance fitness for G15N : what is it? -0.179

Input E17R -0.123

Input C24R -0.629

Input N42L -0.077

Input C21W -1.12

Input P41A -0.146

Input G16C -0.985

Input N34E -0.145

Input M6H -0.713

Input H4R -0.04

Input S27A 0.067

Input T51S 0.013

Input C12Q -0.928

Input H29I -0.822

Input G43E -0.07

Input I40D -0.152

Input C32L -0.99

Input C21Q -0.76

Input E39M -0.095

Input C21F -1.02

Input D3V -0.174

Input C47P -0.552

Input D14G 0.152

Input G15I -0.397

Input R10L -0.021

Input H4S -0.409

Input K13W -0.139

Input S26R 0.003

Input E1D -0.693

Input T51L -0.003

Input I30A -0.003

Input N34C -0.155

Input P41E -0.2

Input C12M -1.19

Input D22T 0.074

Input C50N -0.46

Input H5K 0.199

Input S27C -0.018

Input C12R -0.931

Input C12E -0.124

Data credit: the Human Domainome abundance scans (Beltran et al. 2025)
